# Read-out: Thrombomodulin, THBD (gene 7056)
# assay summary: BSK_CASM3C_Thrombomodulin: BioMAP Diversity Plus: CASM3C Assay for Thrombomodulin Biomarker Activity (AID 2283051);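 further: thrombomodulin protein level measured by ELISA 24 h after dosing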
# details: primary human coronary artery smooth muscle cells; actives raise or lower the signal
Active and inactive are the calls of the source. How the source made its calls: active means hit-call score of the fitted dose curve at least 0.9, where 1 is the maximum; inactive means score below 0.9.
Pick one and only one: active, inactive

Solved cases (4 shown):
molecule	category label
CCOP(=S)(OCC)SCCSCC	inactive
CON=C(C(=O)OC)c1ccccc1CON=C(C)c1cccc(C(F)(F)F)c1	inactive
CSC1=N[C@@](C)(c2ccccc2)C(=O)N1Nc1ccccc1	inactive
C=C(C)[C@H]1Cc2c(ccc3c2O[C@@H]2COc4cc(OC)c(OC)cc4[C@@H]2C3=O)O1	active

Which result was noted for this molecule in the test: C[Si](Cn1cncn1)(c1ccc(F)cc1)c1ccc(F)cc1
active

# repeat for CC(C)=CC1C(C(=O)OCN2C(=O)C3=C(CCCC3)C2=O)C1(C)C (centres undefined)
inactive

Same for N#CSCSC#N
active

Now try CC(C)N(C(=O)SCC(Cl)=C(Cl)Cl)C(C)C .
active

For CCOP(=S)(OCC)Oc1ccc2c(C)c(Cl)c(=O)oc2c1 then?
inactive

Moving on to the next molecule: CNC(=O)ON=C(SC)C(=O)N(C)C
inactive

How about CCCCOC(=O)[C@@H](C)Oc1ccc(Oc2ccc(C#N)cc2F)cc1 ?
inactive
